- Test system: MS2 coat protein
- testMethodNotes: apparent KD of MS2 coat protein; designed switch direction (-1 OFF switch, 1 ON switch): 1; higher = weaker reporter binding
- runParameters: input ligand: none
measuredParameter: apparent KD of MS2 coat protein (nM)
Numbers only here, please. The scale is nM.

chainSequence	measuredOn	number
UGGUACAUGGGAGGAUAUGGAGUGAUGACAUGAGGAUCACCCAUGUUAUAUAUGCCGAGAGGCAACUAGAAGGCCCAUGUACCU [JL SSNG1 3.97] (Eterna round: R96, puzzle: Same State NG 2)	MS2 coat protein	137
UAGGGACAUGAGGAUCACCCAUGUGCCUCAUAUGGAGAAACUCAGGAUAUGCUGAGGAUCACCCGGCAGAAGGGAGAUUUGACC (Eterna round: R96, puzzle: Same State NG 3)	MS2 coat protein	53.2
GCCAUCGCAUGAGGAUAUGGCACCGUUUCGGUGCCAGAAGGCAUGUCAAUUGACAUGAGGAUCACCCAUGUAUUAUUGAUGGCA [JL Fiskers NG1ss - 33 mod 7] (Eterna round: R96, puzzle: Same State NG 1)	MS2 coat protein	860
ACAUGAGAUGGAGGAUAUUUUGUACCUACAUGUGACAUGAGGAUCACCCAUGUGGUAAGUAUGAGAAAGAAGGCCAAGAUAUGU [Equivalence 17 - Jieux - Same State NG 2] (Eterna round: R96, puzzle: Same State NG 2)	MS2 coat protein	28.5
GGUCGGACUCACAUGAGGAUCACCCAUGUUGCGGAAACGCGAUAGGAUAUCUGUCCGAAAAGGUCAGAGAAGGGUCAACCGACC [Fiskers NG3ss - 64] (Eterna round: R96, puzzle: Same State NG 3)	MS2 coat protein	567
UUGAAGAAUUAAGGAUAUUGAGUACAUAUGUAAAACAUGAGGAUCACCCAUGUGGGUUGCGGUAUCGAGAAGGUAAAAUAAUAG [Mat - same State NG 2 - JL mod - D71] (Eterna round: R96, puzzle: Same State NG 2)	MS2 coat protein	81.6

What does the record list as apparent KD of MS2 coat protein for GGAUUGGAGGCAGGAUAUGGGCUCAGAACAUGAGGAUCACCCAUGUAAAACGGCGCGAUGCGCCACCAGAAGGGCCUCCGAUCG [Tiaonbira] (Eterna round: R96, puzzle: Same State NG 2) ?
37.3

What does the record list as apparent KD of MS2 coat protein for CCGUAGAUGGUAGGAUAUGGAGCCUUAUUGGCUCCAGAAGGAUCGAAACAUGAGGAUCACCCAUGUUCGGCGGUCAAUAGACCG [Eli NG1ss - 85] (Eterna round: R96, puzzle: Same State NG 1) ?
23.9

What does the record list as apparent KD of MS2 coat protein for ACAUGAGAUAGAGGAUAUAUUGUACCUACAUGUGACAUGAGGAUCACCCAUGUGGUAAGUAUGACAUAGAAGGCUGAGAUAUGU [Equivalance 83 - Jieux - Same State NG 2] (Eterna round: R96, puzzle: Same State NG 2) ?
77
